# systemTested: T1, IL-1β (UniProt P01584 117-269)
# T1 construct: Antigen of XPA23
# procedureSummary: Biacore, Fab periplasmic extract
Label Y when fold difference in affinity against the original < 0.7 fold; otherwise N.

// known answers, use as guide
[
  {
    "binder": "XPA23 heavy chain S30T (Fab, V domains shown, Fab, periplasmic extract; also called C5A S30T) VH: EVQLLESGGGLVQPGGSLRLSCAASGFTFTKYFMFWVRQAPGKGLEWVSVISPSGGMTRYADSVKGRFTISRDNSKNTLYLQMNSLRAEDTAVYYCARVGYGGNSDYWGQGTLVTVSS VL: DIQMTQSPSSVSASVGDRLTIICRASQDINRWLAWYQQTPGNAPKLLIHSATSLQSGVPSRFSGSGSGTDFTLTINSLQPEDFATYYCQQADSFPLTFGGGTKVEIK",
    "categoryLabel": "Y"
  },
  {
    "binder": "XPA23 heavy chain T58P (Fab, V domains shown, Fab, periplasmic extract; also called C5A T58P) VH: EVQLLESGGGLVQPGGSLRLSCAASGFTFSKYFMFWVRQAPGKGLEWVSVISPSGGMPRYADSVKGRFTISRDNSKNTLYLQMNSLRAEDTAVYYCARVGYGGNSDYWGQGTLVTVSS VL: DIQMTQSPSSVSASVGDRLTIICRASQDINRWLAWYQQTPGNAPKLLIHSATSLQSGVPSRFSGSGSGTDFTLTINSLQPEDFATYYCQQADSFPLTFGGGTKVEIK",
    "categoryLabel": "N"
  },
  {
    "binder": "XPA23 heavy chain S30L (Fab, V domains shown, Fab, periplasmic extract; also called C5A S30L) VH: EVQLLESGGGLVQPGGSLRLSCAASGFTFLKYFMFWVRQAPGKGLEWVSVISPSGGMTRYADSVKGRFTISRDNSKNTLYLQMNSLRAEDTAVYYCARVGYGGNSDYWGQGTLVTVSS VL: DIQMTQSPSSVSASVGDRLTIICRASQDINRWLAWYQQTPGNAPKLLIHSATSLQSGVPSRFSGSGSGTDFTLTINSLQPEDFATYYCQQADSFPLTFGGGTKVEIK",
    "categoryLabel": "N"
  },
  {
    "binder": "XPA23 heavy chain S52T (Fab, V domains shown, Fab, periplasmic extract; also called C5A S52T) VH: EVQLLESGGGLVQPGGSLRLSCAASGFTFSKYFMFWVRQAPGKGLEWVSVITPSGGMTRYADSVKGRFTISRDNSKNTLYLQMNSLRAEDTAVYYCARVGYGGNSDYWGQGTLVTVSS VL: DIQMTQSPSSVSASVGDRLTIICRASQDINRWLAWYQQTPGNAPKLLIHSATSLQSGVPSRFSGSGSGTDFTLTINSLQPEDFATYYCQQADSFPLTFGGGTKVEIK",
    "categoryLabel": "Y"
  },
  {
    "binder": "XPA23 heavy chain Y32T (Fab, V domains shown, Fab, periplasmic extract; also called C5A Y32T) VH: EVQLLESGGGLVQPGGSLRLSCAASGFTFSKTFMFWVRQAPGKGLEWVSVISPSGGMTRYADSVKGRFTISRDNSKNTLYLQMNSLRAEDTAVYYCARVGYGGNSDYWGQGTLVTVSS VL: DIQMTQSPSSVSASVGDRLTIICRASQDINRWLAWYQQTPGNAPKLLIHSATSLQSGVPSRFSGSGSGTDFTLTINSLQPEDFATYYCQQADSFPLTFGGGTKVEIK",
    "categoryLabel": "N"
  },
  {
    "binder": "XPA23 heavy chain N104A (Fab, V domains shown, Fab, periplasmic extract; also called C5A N104A) VH: EVQLLESGGGLVQPGGSLRLSCAASGFTFSKYFMFWVRQAPGKGLEWVSVISPSGGMTRYADSVKGRFTISRDNSKNTLYLQMNSLRAEDTAVYYCARVGYGGASDYWGQGTLVTVSS VL: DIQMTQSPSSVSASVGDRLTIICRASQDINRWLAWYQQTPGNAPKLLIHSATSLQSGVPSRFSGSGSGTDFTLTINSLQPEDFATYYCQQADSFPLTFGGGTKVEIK",
    "categoryLabel": "N"
  },
  {
    "binder": "XPA23 heavy chain P53V (Fab, V domains shown, Fab, periplasmic extract; also called C5A P53V) VH: EVQLLESGGGLVQPGGSLRLSCAASGFTFSKYFMFWVRQAPGKGLEWVSVISVSGGMTRYADSVKGRFTISRDNSKNTLYLQMNSLRAEDTAVYYCARVGYGGNSDYWGQGTLVTVSS VL: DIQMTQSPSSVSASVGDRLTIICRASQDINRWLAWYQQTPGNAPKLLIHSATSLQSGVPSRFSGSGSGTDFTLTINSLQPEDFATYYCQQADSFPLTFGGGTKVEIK",
    "categoryLabel": "N"
  },
  {
    "binder": "XPA23 heavy chain F35T (Fab, V domains shown, Fab, periplasmic extract; also called C5A F35T) VH: EVQLLESGGGLVQPGGSLRLSCAASGFTFSKYFMTWVRQAPGKGLEWVSVISPSGGMTRYADSVKGRFTISRDNSKNTLYLQMNSLRAEDTAVYYCARVGYGGNSDYWGQGTLVTVSS VL: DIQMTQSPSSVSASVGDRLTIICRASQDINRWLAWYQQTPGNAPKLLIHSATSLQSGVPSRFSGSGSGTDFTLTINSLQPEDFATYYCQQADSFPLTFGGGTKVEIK",
    "categoryLabel": "N"
  },
  {
    "binder": "XPA23 heavy chain S54G (Fab, V domains shown, Fab, periplasmic extract; also called C5A S54G) VH: EVQLLESGGGLVQPGGSLRLSCAASGFTFSKYFMFWVRQAPGKGLEWVSVISPGGGMTRYADSVKGRFTISRDNSKNTLYLQMNSLRAEDTAVYYCARVGYGGNSDYWGQGTLVTVSS VL: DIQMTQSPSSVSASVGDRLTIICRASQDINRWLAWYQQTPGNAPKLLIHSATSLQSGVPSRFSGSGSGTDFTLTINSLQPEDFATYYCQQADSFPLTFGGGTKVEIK",
    "categoryLabel": "N"
  }
]

Incoming: Below 0.7 fold on fold difference in affinity against the original? Entry XPA23 heavy chain P53A (Fab, V domains shown, Fab, periplasmic extract; also called C5A P53A) VH: EVQLLESGGGLVQPGGSLRLSCAASGFTFSKYFMFWVRQAPGKGLEWVSVISASGGMTRYADSVKGRFTISRDNSKNTLYLQMNSLRAEDTAVYYCARVGYGGNSDYWGQGTLVTVSS VL: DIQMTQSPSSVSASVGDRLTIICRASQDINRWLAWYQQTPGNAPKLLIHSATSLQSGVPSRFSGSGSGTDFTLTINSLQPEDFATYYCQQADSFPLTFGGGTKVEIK
Outgoing: Y
